Biological target: T1, PUF4 RNA-binding domain (Saccharomyces cerevisiae, UniProt P25339 537-888)
T1 sequence: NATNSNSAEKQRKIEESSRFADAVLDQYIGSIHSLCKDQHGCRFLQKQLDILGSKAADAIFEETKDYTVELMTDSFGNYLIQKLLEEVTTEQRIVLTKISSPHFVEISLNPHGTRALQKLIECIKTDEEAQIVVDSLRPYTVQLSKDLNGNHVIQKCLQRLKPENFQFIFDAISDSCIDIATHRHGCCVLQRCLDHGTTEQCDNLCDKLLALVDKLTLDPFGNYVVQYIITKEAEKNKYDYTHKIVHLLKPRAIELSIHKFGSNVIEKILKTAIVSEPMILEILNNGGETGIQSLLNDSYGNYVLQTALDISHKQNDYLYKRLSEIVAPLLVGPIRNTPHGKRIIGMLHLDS
Assay: Mg; RNA-MaP; 20 mM Na-HEPES pH 7.4, 30 mM KOAc, 0.75 mM MgCl2, 0.1% Tween-20, 5% glycerol, 0.1 mg/mL BSA, 2 mM DTT; 25 C; 0.0125-409.6 nM protein
Conditions: tags: N-His6-TEV cleaved; C-SNAP kept, Cy3B-labelled; label: tethered on chip by stalled RNA polymerase
Below, each of the binders is paired with its reported log10 Kd value.
Short version: log10 scale, Kd, nM.

Solved cases (6 shown):
>  <Binder>
Ib_S4_P4E.1_K4.1_C4.1_H4.1_[A4G]_A4.1_F4.1_[T8C]_T4.1 (ssRNA) RNA: UUUGACAACUGAUCGUUCUUUCUUGUGUAUCAUUCUUUCUCGAUCAGUUGUCUUU

>  <log10 Kd>
1.39

$$$$
>  <Binder>
Ie_S4_P3E.2_K3.1_C3.2_H3.1_A3.1_F3.1_[+8CCCTT]_T3.2 (ssRNA) RNA: UUUGACAACUGAUCGUUCUUUCUCUUGUAUAUACCCUUUAUUCUUUCUCGAUCAGUUGUCUUU

>  <log10 Kd>
0.80

$$$$
>  <Binder>
Ic_S4_P4E.1_K4.1_C4.1_H4.1_A4.1_[T5A]_[A6T]_[T7C]_F4.1_[A9G]_T4.1 (ssRNA) RNA: UUUGACAACUGAUCGUUCUUUCUUGUAAUCUGUUCUUUCUCGAUCAGUUGUCUUU

>  <log10 Kd>
1.62

$$$$
>  <Binder>
Ic_S2_P5E.1_K5.1_C5.1_H5.1_A5.1_[T5G]_[T6C]_[A7C]_F5.1_[T9C]_T5.1 (ssRNA) RNA: UUUGAUUAAUAUGAUAUCGUUCUUUCUUGUAGCCUCAUUCUUUCUCGAUAUCAUAUUAAUCUUU

>  <log10 Kd>
1.87

$$$$
>  <Binder>
Ib_S2_P4E.1_K4.1_C4.1_H4.1_[T1G]_A4.1_[T5C]_F4.1_T4.1 (ssRNA) RNA: UUUGAUUAAUAUGAUAUCGUUCUUUCUGGUACAUUAUUCUUUCUCGAUAUCAUAUUAAUCUUU

>  <log10 Kd>
1.32

$$$$
>  <Binder>
UCUCUUCCUAUAUAUAUCUCUCUU (ssRNA) [Id_ii_S1_P3E.3_K3.2_C3.2_[T-1C]_H3.2_A3.1_F3.1_T3.2_[A10C]]

>  <log10 Kd>
3.00

$$$$

Tell us which log10 Kd value is on record for UCUCUUGCUGUAUAUAACUCUCUU (ssRNA) [Id_ii_S1_P3E.2_K3.1_C3.2_[C-2G]_[T-1C]_H3.1_A3.1_F3.1_T3.2_[T9A]_[A10C]]
1.27

Tell us which log10 Kd value is on record for Ic_S2_P5E.1_K5.1_C5.1_H5.1_A5.1_[T6G]_[A7G]_F5.1_[T8C]_[A10C]_T5.1 (ssRNA) RNA: UUUGAUUAAUAUGAUAUCGUUCUUUCUUGUAUGGCUCUUCUUUCUCGAUAUCAUAUUAAUCUUU
2.73

Tell us which log10 Kd value is on record for UCUCUUCAUGUAUAUUAGCUCUCUU (ssRNA) [Id_ii_S1_P4E.2_K4.1_C4.2_[T-1A]_H4.1_A4.1_F4.1_T4.2_[T11C]]
-0.37

Tell us which log10 Kd value is on record for UCUCUUCUUGCCUCUUAUAUAUAUCUCUU (ssRNA) [Ie_S1_P3E.2_K3.1_C3.2_H3.1_[+2CCTCT]_A3.1_F3.1_T3.2]
3.23

Tell us which log10 Kd value is on record for UCUCUUUCUAUAUUAUUAUUUCUCUU (ssRNA) [Id_ii_S1_P5E.3_K5.2_C5.2_[C-2T]_[T-1C]_H5.2_A5.1_F5.1_T5.2_[A12T]]
2.60

Tell us which log10 Kd value is on record for UCUCUUUGUAGUUUUUCUCUU (ssRNA) [Ic_S1_P4E.1_K4.1_C4.1_H4.1_A4.1_[T5G]_[A6T]_F4.1_[A9T]_T4.1]
2.07

Tell us which log10 Kd value is on record for UCUCUUUGUAUUAUUUCUCUU (ssRNA) [Ic_S1_P4E.1_K4.1_C4.1_H4.1_A4.1_[A6T]_[T7A]_F4.1_[A9T]_T4.1]
1.10

Tell us which log10 Kd value is on record for Ic_S2_P3E.1_K3.1_C3.1_H3.1_A3.1_[T5G]_[A6C]_F3.1_[A8C]_T3.1 (ssRNA) RNA: UUUGAUUAAUAUGAUAUCGUUCUUUCUUGUAGCUCUUCUUUCUCGAUAUCAUAUUAAUCUUU
2.26
